experiment_summary: HepG2 cytotoxicity, 14 day, glucose/galactose media
Assay type: cell-based
condition_summary: human
For each record, write down the corresponding IC50 at 14 days.

Please report the recorded IC50 at 14 days for CC(C)OC(=O)[C@H](C)N[P@@](=O)(OC[C@H]1O[C@@H](n2ccc(=O)[nH]c2=O)[C@@](F)(Br)[C@@H]1O)Oc1ccccc1 [Compound 27] .
> 100 µM

Now the same for CC(C)OC(=O)[C@H](C)N[P@](=O)(OC[C@H]1O[C@@H](n2ccc(=O)[nH]c2=O)[C@@](F)(Br)[C@@H]1O)Oc1ccccc1 [Compound 28]
> 100 µM

---

experiment_summary: Cardiac toxicity in stem cell-induced ventricular cardiomyocytes
condition_summary: human
For each record, write down the corresponding IC50.

Please report the recorded IC50 for CC(C)OC(=O)[C@H](C)N[P@](=O)(OC[C@H]1O[C@@H](n2ccc(=O)[nH]c2=O)[C@@](F)(Br)[C@@H]1O)Oc1ccccc1 .
> 100 µM

Now the same for CC(C)OC(=O)[C@H](C)N[P@@](=O)(OC[C@H]1O[C@@H](n2ccc(=O)[nH]c2=O)[C@@](F)(Br)[C@@H]1O)Oc1ccccc1
> 100 µM

Now the same for CC(C)OC(=O)[C@H](C)N[P@](=O)(OC[C@H]1O[C@@H](n2ccc(=O)[nH]c2=O)[C@](C)(F)[C@@H]1O)Oc1ccccc1 [SOF, sofosbuvir, reference compound]
> 100 µM

---

experiment_summary: in vitro
condition_summary: African green monkey
endpoint_name: CC50

Please report the recorded CC50 for O=c1ccn([C@@H]2O[C@H](CO)[C@@H](O)[C@]2(F)Br)c(=O)[nH]1 .
> 100 µM

Now the same for CC(C)OC(=O)[C@H](C)N[P@](=O)(OC[C@H]1O[C@@H](n2ccc(=O)[nH]c2=O)[C@@](F)(Br)[C@@H]1O)Oc1ccccc1
> 100 µM

Now the same for CC(C)OC(=O)[C@H](C)N[P@@](=O)(OC[C@H]1O[C@@H](n2ccc(=O)[nH]c2=O)[C@@](F)(Br)[C@@H]1O)Oc1ccccc1
> 100 µM

---

system: UniProtKB P54098
Sequence (P54098 1-1239): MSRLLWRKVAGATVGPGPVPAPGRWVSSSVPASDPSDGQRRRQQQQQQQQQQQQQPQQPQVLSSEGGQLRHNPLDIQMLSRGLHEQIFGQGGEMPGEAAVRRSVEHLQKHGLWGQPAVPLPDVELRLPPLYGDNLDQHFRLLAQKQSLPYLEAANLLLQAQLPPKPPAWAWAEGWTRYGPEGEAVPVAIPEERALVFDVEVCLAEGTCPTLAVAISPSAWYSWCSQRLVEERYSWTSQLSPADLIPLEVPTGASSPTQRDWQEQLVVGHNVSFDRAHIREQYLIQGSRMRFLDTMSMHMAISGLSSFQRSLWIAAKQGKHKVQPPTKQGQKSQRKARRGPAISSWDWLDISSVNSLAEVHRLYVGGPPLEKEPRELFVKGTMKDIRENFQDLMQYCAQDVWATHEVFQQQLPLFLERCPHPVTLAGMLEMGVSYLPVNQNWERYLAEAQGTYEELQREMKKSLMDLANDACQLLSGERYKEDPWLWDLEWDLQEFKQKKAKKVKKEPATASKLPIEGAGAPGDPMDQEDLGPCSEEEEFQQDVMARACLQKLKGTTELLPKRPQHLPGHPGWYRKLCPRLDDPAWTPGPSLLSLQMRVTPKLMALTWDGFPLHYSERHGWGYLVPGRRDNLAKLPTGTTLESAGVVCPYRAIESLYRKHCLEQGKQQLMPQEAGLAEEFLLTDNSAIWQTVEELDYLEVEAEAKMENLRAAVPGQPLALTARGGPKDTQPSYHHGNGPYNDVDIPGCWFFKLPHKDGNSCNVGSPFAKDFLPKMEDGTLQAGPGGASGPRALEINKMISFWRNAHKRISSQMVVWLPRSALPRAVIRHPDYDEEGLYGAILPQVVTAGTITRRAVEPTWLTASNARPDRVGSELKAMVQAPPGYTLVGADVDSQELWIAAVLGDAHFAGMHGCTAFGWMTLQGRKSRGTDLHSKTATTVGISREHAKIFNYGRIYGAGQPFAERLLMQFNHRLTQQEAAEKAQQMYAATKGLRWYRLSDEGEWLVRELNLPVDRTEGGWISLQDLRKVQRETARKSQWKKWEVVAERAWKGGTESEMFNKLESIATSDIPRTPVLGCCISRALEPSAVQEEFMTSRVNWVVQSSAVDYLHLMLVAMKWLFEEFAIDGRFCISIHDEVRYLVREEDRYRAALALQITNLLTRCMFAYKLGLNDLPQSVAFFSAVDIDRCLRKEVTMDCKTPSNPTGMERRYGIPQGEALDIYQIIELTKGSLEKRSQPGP
endpoint_name: IC50 (nM)
Output spec: scalar in nM, unitless text.

Please report the recorded IC50 for Cc1cn([C@H]2CC[C@@H](COP(=O)(O)OP(=O)(O)OP(=O)(O)O)O2)c(=O)[nH]c1=O .
100
